# procedureSummary: Half life in Sprague-Dawley rat at 1 mg/kg, iv by UPLC-MS/MS analysis
# Format: ADME, organism-based
# experimentalSetup: in vivo
measuredParameter: half-life (h)
Give just the numeric value; h need not be written.

// lookup half-life for `CCCCCCCCCNc1ccc(F)c(C(N)=O)c1F`
5.5

====

# Test system: Staphylococcus aureus
# procedureSummary: Antibacterial activity against multidrug-resistant Staphylococcus aureus isolate 231 by broth microdilution assay
# Assay type: functional
A collection of molecules and their measured MIC
Give just the numeric value; µg/mL need not be written.

CCCCCCCCCNc1ccc(F)c(C(N)=O)c1F; 8
CC1(C)S[C@@H]2[C@H](NC(=O)[C@H](N)c3ccc(O)cc3)C(=O)N2[C@H]1C(=O)O; 256
Cc1onc(-c2ccccc2Cl)c1C(=O)N[C@@H]1C(=O)N2[C@@H]1SC(C)(C)[C@@H]2C(=O)O; 64
CO/N=C(\C(=O)N[C@@H]1C(=O)N2C(C(=O)O)=C(COC(N)=O)CS[C@H]12)c1ccco1; 1020
C[C@@H](O)[C@H]1C(=O)N2C(C(=O)O)=C(S[C@@H]3CN[C@H](C(=O)N(C)C)C3)[C@H](C)[C@H]12; 32

Next up:
// lookup MIC for `COc1cccc(OC)c1C(=O)N[C@@H]1C(=O)N2[C@@H]1SC(C)(C)[C@@H]2C(=O)O`
1020

====

# Test system: Staphylococcus aureus
# procedureSummary: Antibacterial activity against multidrug-resistant Staphylococcus aureus isolate 2901 by broth microdilution assay
# Assay type: functional
measuredParameter: log10 MIC (log10 of the value in µg/mL)
Answers are given as log10 of MIC in µg/mL.

See these solved cases before continuing.
Cc1onc(-c2ccccc2Cl)c1C(=O)N[C@@H]1C(=O)N2[C@@H]1SC(C)(C)[C@@H]2C(=O)O [CLOXACILLIN]; 0.30
CO/N=C(\C(=O)N[C@@H]1C(=O)N2C(C(=O)O)=C(COC(N)=O)CS[C@H]12)c1ccco1 [CEFUROXIME]; 1.20
COc1cccc(OC)c1C(=O)N[C@@H]1C(=O)N2[C@@H]1SC(C)(C)[C@@H]2C(=O)O [METHICILLIN]; 2.41

Provide value of log10 MIC for this record tested with Staphylococcus aureus: `CCCCCCCCCNc1ccc(F)c(C(N)=O)c1F`
2.71

Provide value of log10 MIC for this record tested with Staphylococcus aureus: C[C@@H](O)[C@H]1C(=O)N2C(C(=O)O)=C(S[C@@H]3CN[C@H](C(=O)N(C)C)C3)[C@H](C)[C@H]12 [MEROPENEM]
0.00

Provide value of log10 MIC for this record tested with Staphylococcus aureus: CC1(C)S[C@@H]2[C@H](NC(=O)[C@H](N)c3ccc(O)cc3)C(=O)N2[C@H]1C(=O)O [AMOXICILLIN]
2.71

====

# procedureSummary: AUC (0 to infinity) in Sprague-Dawley rat at 50 mg/kg, po by UPLC-MS/MS analysis
# Assay type: ADME, organism-based
# Design: dose 50 mg/kg, route oral, time infinity
# experimentalSetup: in vivo
measuredParameter: AUC(0-inf) (ng·h/mL)
Give just the numeric value; ng·h/mL need not be written.

// lookup AUC(0-inf) for `CCCCCCCCCNc1ccc(F)c(C(N)=O)c1F`
10300
